- Assay text: Solubility of compound in FaSSIF incubated for 24 hrs by HPLC analysis
- Type: ADME
Record True whenever solubility at 24 h is at 400 µM or higher; record False when lower.

{"Smiles structure": "Nc1nonc1-c1nc2ccccc2n1CC(=O)Nc1cccc(N2CCOCC2)c1", "Qualitative label": "True"}

Given the entry `N#Cc1cc(Br)cc(NC(=O)Cn2c(-c3nonc3N)nc3ccccc32)c1` , answer whether its solubility at 24 h meets or surpasses 400 µM.
False

Input `Nc1nonc1-c1nc2ccccc2n1CC(=O)Nc1ccc(C(=O)N2CCOCC2)cc1`
True

---

For each record, write down the corresponding IC50.
- Study target: Cholinesterase (Equus caballus)
- Assay text: Inhibition of horse serum BChE using BTC iodide as substrate preincubated for 5 mins followed by substrate addition measured after 2 mins by Ellman's method
Numbers only, in nM.

Please report IC50 for every entry that follows.
1. Nc1nonc1-c1nc2ccccc2n1CC(=O)Nc1ccc(N2CCCCC2)cc1
2. COC(=O)c1cncc(NC(=O)Cn2c(-c3nonc3N)nc3ccccc32)c1

1. 168
2. 43

Please report IC50 for every entry that follows.
1. CN1CCN(C(=O)Cc2ccc(NC(=O)Cn3c(-c4nonc4N)nc4ccccc43)cc2)CC1
2. COC(=O)c1ccnc(NC(=O)Cn2c(-c3nonc3N)nc3ccccc32)c1
3. Nc1nonc1-c1nc2ccccc2n1CC(=O)Nc1cccc(N2CCOCC2)c1
4. Nc1nonc1-c1nc2ccccc2n1CC(=O)Nc1ccc(CCN2CCOCC2)cc1
5. CN1CCN(C(=O)Cc2cccc(NC(=O)Cn3c(-c4nonc4N)nc4ccccc43)c2)CC1

1. 609
2. 33.1
3. 49.5
4. 11.3
5. 1940

For the compound shown here, `Nc1nonc1-c1nc2ccccc2n1CC(=O)Nc1cncc(F)c1` , give the reported IC50.
99.4

---

- Assay text: Ratio of Cmax in brain to plasma in ICR mouse at 10 mg/kg, po measured for 10 to 480 mins by spectroscopy
- Format: ADME, organism-based
- Assay setup: time 10-480 min
Value type: Kp
Answers are plain numbers.

For the compound shown here, `Nc1nonc1-c1nc2ccccc2n1CC(=O)Nc1ccc(CCN2CCOCC2)cc1` , give the reported Kp.
0.15

---

- Study target: Cholinesterase (Equus caballus)
- Assay text: Inhibition of horse serum BChE using BTC iodide as substrate preincubated for 5 mins followed by substrate addition measured after 2 mins by Ellman's method
Value type: pIC50
Numbers only, as −log10 of the molar value.

Worked cases, answers included:
{"Smiles structure": "Nc1nonc1-c1nc2ccccc2n1CC(=O)Nc1cccc(CC(=O)N2CCOCC2)c1", "Reported value": 6.71}
{"Smiles structure": "Nc1nonc1-c1nc2ccccc2n1CC(=O)Nc1ccccn1", "Reported value": 5.88}
{"Smiles structure": "CN1CCN(C(=O)c2ccc(NC(=O)Cn3c(-c4nonc4N)nc4ccccc43)cc2)CC1", "Reported value": 7.08}
{"Smiles structure": "Nc1nonc1-c1nc2ccccc2n1CC(=O)Nc1ccc(C(=O)N2CCOCC2)cc1", "Reported value": 7.17}
{"Smiles structure": "Nc1nonc1-c1nc2ccccc2n1CC(=O)Nc1cccc(C(=O)O)c1", "Reported value": 5.70}

Please report pIC50 for every entry that follows.
1. Nc1nonc1-c1nc2ccccc2n1CC(=O)Nc1ccccc1N1CCOCC1
2. CN1CCN(Cc2ccc(NC(=O)Cn3c(-c4nonc4N)nc4ccccc43)cc2)CC1
3. Nc1nonc1-c1nc2ccccc2n1CC(=O)NC1CCCCC1
4. Nc1nonc1-c1nc2ccccc2n1CC(=O)Nc1cccc(N2CCCCC2)c1
5. Nc1nonc1-c1nc2ccccc2n1CC(=O)Nc1cccc(N2CCCC2)c1
6. CN1CCN(c2cccc(NC(=O)Cn3c(-c4nonc4N)nc4ccccc43)c2)CC1

[5.61, 7.00, 5.45, 8.33, 8.25, 7.71]

Please report pIC50 for every entry that follows.
1. Nc1nonc1-c1nc2ccccc2n1CC(=O)Nc1cncc(Cl)c1
2. Nc1nonc1-c1nc2ccccc2n1CC(=O)Nc1cncc(Br)c1
3. Nc1nonc1-c1nc2ccccc2n1CC(=O)Nc1cncc(C(F)(F)F)c1

[7.50, 7.81, 7.02]

---

- Study target: CYP2C9 (Homo sapiens, UniProt P11712)
- Sequence (P11712 whole entry): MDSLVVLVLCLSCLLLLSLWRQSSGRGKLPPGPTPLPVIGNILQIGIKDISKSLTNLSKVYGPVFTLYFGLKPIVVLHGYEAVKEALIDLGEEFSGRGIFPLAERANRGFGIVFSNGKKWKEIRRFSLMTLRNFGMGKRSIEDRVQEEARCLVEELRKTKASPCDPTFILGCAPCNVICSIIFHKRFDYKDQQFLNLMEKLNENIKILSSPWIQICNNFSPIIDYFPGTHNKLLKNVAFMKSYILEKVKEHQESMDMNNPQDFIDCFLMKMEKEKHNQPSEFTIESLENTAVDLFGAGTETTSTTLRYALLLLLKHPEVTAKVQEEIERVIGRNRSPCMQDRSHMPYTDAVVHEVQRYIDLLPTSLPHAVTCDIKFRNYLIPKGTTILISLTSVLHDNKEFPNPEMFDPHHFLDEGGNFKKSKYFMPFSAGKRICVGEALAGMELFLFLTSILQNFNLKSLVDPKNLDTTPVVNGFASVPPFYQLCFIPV
- Assay text: Inhibition of CYP2C9 in human liver microsomes at 10 uM in presence of NADPH-regenerating system by LC-MS/MS analysis relative to control
- Assay type: ADME, Microsome
Value type: inhibition at 10 µM (%)
Answers are plain numbers, in %.

For the compound shown here, `Nc1nonc1-c1nc2ccccc2n1CC(=O)Nc1ccc(CCN2CCOCC2)cc1` , give the reported inhibition at 10 µM.
10.9

---

- Test system: SH-SY5Y
- Assay text: Cytotoxicity against human SH-SY5Y cells assessed as survival rate incubated for 24 hrs by MTT assay
- Format: functional, cell-based
Value type: IC50 (µM)
Numbers only, in µM.

{"Smiles structure": "Nc1nonc1-c1nc2ccccc2n1CC(=O)Nc1ccc(CCN2CCOCC2)cc1", "Display unit": "µM", "IC50": 89.8}

For the compound shown here, `CN1CCN(c2cccc(NC(=O)Cn3c(-c4nonc4N)nc4ccccc43)c2)CC1` , give the reported IC50.
10.3

---

- Study target: CYP2C19 (Homo sapiens)
- Sequence (P33261 whole entry): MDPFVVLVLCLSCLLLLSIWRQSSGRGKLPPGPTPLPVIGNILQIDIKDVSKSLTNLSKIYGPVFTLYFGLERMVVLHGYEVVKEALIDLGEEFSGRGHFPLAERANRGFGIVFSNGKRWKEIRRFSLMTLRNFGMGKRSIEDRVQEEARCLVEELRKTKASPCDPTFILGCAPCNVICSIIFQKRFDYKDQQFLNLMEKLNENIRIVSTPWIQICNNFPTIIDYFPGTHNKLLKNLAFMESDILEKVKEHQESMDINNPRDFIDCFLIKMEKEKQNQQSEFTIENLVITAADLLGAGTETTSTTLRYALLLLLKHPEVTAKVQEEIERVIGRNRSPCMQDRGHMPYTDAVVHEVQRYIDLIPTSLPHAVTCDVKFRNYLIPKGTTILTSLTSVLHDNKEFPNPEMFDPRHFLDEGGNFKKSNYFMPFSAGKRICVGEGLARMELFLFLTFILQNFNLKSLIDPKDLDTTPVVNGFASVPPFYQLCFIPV
- Assay text: Inhibition of CYP2C19 in human liver microsomes at 10 uM in presence of NADPH-regenerating system by LC-MS/MS analysis relative to control
- Type: ADME, Microsome
Value type: inhibition at 10 µM (%)
Give bare numbers, in %.

For the compound shown here, `Nc1nonc1-c1nc2ccccc2n1CC(=O)Nc1ccc(CCN2CCOCC2)cc1` , give the reported inhibition at 10 µM.
9.19

---

- Assay text: Cmax in Sprague-Dawley rat at 10 mg/kg, po measured for 1 to 1440 mins by LC-MS/MS analysis
- Type: ADME, organism-based
- Assay setup: Sprague-Dawley, in vivo, time 1-1440 min, read-out: Cmax
Value type: Cmax (ng/mL)
Give bare numbers, in ng/mL.

For the compound shown here, `Nc1nonc1-c1nc2ccccc2n1CC(=O)Nc1ccc(CCN2CCOCC2)cc1` , give the reported Cmax.
1060

---

- Study target: hERG (KCNH2) (Homo sapiens)
- Sequence (Q12809 whole entry): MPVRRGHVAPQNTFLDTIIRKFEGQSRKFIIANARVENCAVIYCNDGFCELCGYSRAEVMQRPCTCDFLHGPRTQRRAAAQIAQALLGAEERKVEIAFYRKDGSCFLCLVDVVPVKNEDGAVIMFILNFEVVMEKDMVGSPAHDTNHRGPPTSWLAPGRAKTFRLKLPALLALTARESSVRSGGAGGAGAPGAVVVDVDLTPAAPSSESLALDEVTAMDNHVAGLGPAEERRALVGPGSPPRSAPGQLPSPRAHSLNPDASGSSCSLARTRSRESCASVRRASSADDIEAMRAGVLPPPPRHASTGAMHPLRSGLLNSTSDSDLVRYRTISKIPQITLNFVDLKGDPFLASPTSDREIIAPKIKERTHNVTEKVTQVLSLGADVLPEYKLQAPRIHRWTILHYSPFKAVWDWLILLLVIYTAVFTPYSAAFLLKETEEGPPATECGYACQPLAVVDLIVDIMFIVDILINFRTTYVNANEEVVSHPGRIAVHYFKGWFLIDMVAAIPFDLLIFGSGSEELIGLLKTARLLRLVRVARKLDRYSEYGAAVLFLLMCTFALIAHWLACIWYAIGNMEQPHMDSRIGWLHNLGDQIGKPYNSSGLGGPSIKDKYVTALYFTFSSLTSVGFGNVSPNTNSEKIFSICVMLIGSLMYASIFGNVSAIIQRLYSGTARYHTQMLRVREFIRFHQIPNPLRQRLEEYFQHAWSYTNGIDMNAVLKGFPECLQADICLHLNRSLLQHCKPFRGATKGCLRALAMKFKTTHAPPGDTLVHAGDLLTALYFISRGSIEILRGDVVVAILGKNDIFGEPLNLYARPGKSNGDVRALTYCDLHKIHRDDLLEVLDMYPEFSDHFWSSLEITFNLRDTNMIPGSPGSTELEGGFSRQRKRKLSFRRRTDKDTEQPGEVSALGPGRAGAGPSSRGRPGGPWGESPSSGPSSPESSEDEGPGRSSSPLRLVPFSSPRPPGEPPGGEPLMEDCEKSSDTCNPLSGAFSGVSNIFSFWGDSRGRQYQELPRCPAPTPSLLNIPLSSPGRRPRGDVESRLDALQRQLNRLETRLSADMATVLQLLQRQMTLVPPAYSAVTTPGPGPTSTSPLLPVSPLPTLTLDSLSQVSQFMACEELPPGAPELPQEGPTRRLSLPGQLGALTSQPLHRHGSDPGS
- Assay text: Inhibition of hERG at 10 uM by manual patch clamp assay relative to control
- Assay type: toxicity
Value type: inhibition at 10 µM (%)
One number for each entry, in %.

For the compound shown here, `Nc1nonc1-c1nc2ccccc2n1CC(=O)Nc1ccc(CCN2CCOCC2)cc1` , give the reported inhibition at 10 µM.
25.5

---

- Assay text: Solubility of compound in FaSSIF incubated for 24 hrs by HPLC analysis
- Type: ADME
Value type: solubility at 24 h (µM)
One number for each entry, in µM.

Worked cases, answers included:
{"Smiles structure": "Nc1nonc1-c1nc2ccccc2n1CC(=O)Nc1cccc(N2CCCC2)c1", "solubility at 24 h / µM": 104}
{"Smiles structure": "Nc1nonc1-c1nc2ccccc2n1CC(=O)Nc1ccc(N2CCCCC2)cc1", "solubility at 24 h / µM": 86.2}
{"Smiles structure": "CN1CCN(c2cccc(NC(=O)Cn3c(-c4nonc4N)nc4ccccc43)c2)CC1", "solubility at 24 h / µM": 2820}
{"Smiles structure": "CN1CCN(Cc2ccc(NC(=O)Cn3c(-c4nonc4N)nc4ccccc43)cc2)CC1", "solubility at 24 h / µM": 2660}
{"Smiles structure": "CN1CCN(C(=O)c2ccc(NC(=O)Cn3c(-c4nonc4N)nc4ccccc43)cc2)CC1", "solubility at 24 h / µM": 1020}

For the compound shown here, `COC(=O)c1ccnc(NC(=O)Cn2c(-c3nonc3N)nc3ccccc32)c1` , give the reported solubility at 24 h.
175

---

- Study target: Cholinesterase (Equus caballus, UniProt P81908)
- Sequence (P81908 whole entry): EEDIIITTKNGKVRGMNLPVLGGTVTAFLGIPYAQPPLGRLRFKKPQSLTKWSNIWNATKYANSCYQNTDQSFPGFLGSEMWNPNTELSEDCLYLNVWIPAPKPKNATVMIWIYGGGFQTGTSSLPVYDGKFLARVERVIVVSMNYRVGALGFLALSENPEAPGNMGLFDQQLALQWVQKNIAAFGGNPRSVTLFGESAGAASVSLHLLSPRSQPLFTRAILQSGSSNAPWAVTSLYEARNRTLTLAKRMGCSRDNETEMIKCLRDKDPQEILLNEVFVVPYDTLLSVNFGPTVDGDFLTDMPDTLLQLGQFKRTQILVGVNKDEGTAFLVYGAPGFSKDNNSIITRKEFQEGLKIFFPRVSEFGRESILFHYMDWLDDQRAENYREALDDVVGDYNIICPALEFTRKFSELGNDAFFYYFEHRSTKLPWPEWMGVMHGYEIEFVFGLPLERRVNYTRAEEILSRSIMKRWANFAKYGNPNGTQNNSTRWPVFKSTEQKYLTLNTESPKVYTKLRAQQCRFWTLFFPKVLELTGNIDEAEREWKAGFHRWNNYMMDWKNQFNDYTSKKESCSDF
- Assay text: Inhibition of horse serum BChE using BTC iodide as substrate preincubated for 5 mins followed by substrate addition measured after 2 mins by Ellman's method
Value type: pIC50
One number for each entry, as −log10 of the molar value.

{"Smiles structure": "Nc1nonc1-c1nc2ccccc2n1CC(=O)Nc1ccncc1", "Study target": "Cholinesterase (Equus caballus, UniProt P81908)", "Reported value": 6.76}
{"Smiles structure": "Nc1nonc1-c1nc2ccccc2n1CC(=O)Nc1ccc(CN2CCOCC2)cc1", "Study target": "Cholinesterase (Equus caballus, UniProt P81908)", "Reported value": 7.85}
{"Smiles structure": "Nc1nonc1-c1nc2ccccc2n1CC(=O)Nc1ccc(N2CCOCC2)cc1", "Study target": "Cholinesterase (Equus caballus, UniProt P81908)", "Reported value": 6.32}

Please report pIC50 for every entry that follows.
1. Nc1nonc1-c1nc2ccccc2n1CC(=O)Nc1cccnc1
2. Nc1nonc1-c1nc2ccccc2n1CC(=O)Nc1ccc(CC(=O)N2CCOCC2)cc1
3. CN1CCN(c2ccc(NC(=O)Cn3c(-c4nonc4N)nc4ccccc43)cc2)CC1
4. CN1CCN(c2ccccc2NC(=O)Cn2c(-c3nonc3N)nc3ccccc32)CC1

6.81
6.91
7.03
6.28
